Quick reference for protection (pct of control) among some molecules
# Procedure details: blockers of measles virus-induced cell death – single point, MLSMR library, absorbance, measles RdRp inhibitor project, primary screen (AID 841)
# Test conditions: Measles virus-infected cells, CPE protection, at 4 µM, stronger effect = higher value
Among all 140,000 compounds or so, about 2,100 (1.5%) were called active. For the sample, actives were picked, then their nearest neighbours and some compounds at random.
Your answer should be a plain number; it is taken to be in %.

Consider the reported protection (pct of control) for these molecules:
The recorded protection (pct of control) for entry "O=C(CN1C(=O)c2cccc3cccc(c23)C1=O)N1CCCCC1" equals 4.32

The recorded protection (pct of control) for entry "CCCc1cc(-c2n[nH]c(=S)n2Cc2ccccc2)cs1" equals 18

The recorded protection (pct of control) for entry COCc1c(C(=O)N/N=C/C2CC=CCC2)nnn1-c1nonc1N (stereo unspecified) equals 5.58

The recorded protection (pct of control) for entry "C=CCn1c(-c2ccc3[nH]c(C)c(C)c3c2)n[nH]c1=S" equals 41.1

The recorded protection (pct of control) for entry "CCc1cc(-c2n[nH]c(=S)n2CC(C)C)cs1" equals 1.82

Others:
The recorded protection (pct of control) for entry CCn1c(C(C)NC(=O)c2ccc(C)cc2)n[nH]c1=S (stereo unspecified) equals 13.2

The recorded protection (pct of control) for entry "CCOC(=O)CNC(=O)CSc1nnnn1-c1cc(C)ccc1C" equals 4.67

The recorded protection (pct of control) for entry "CCOC(=O)c1c(-c2ccc(C)cc2C)csc1NC(=O)CSc1nnnn1C" equals 37

---

# Procedure details: blockers of measles virus-induced cell death – single point, MLSMR library, absorbance, measles RdRp inhibitor project, primary screen (AID 841)
# Test conditions: Measles virus-infected cells, CPE protection, at 4 µM
The campaign covered roughly 140,000 compounds. About 2,100 (1.5%) were called active. Cut-off read from the data, not from the text of the source: active = protection mostly above about 24% (no sharp cut-off); inactive = mostly below about 26%. The full list was thinned out, with actives kept by preference.
Assign a class; possible classes are active, inactive

QUERY: Called result for "COC(=O)[C@H](Cc1ccccc1)NC(=O)[C@@H]1C[C@H]1[C@@H](NC(=O)OCc1ccccc1)c1ccccc1"
RESULT: active

QUERY: Called result for "Oc1ccccc1/C=N/n1c(-c2cccs2)n[nH]c1=S"
RESULT: active

QUERY: Called result for CC1CCCN(S(=O)(=O)c2ccc(N(C(=O)c3cnccn3)C(C(=O)NC3CCCCC3)c3cccs3)cc2)C1 (stereo not given)
RESULT: inactive

QUERY: Called result for "FC(F)(F)c1nnc2ccc(N3CCN(c4ccccc4)CC3)nn12"
RESULT: inactive

QUERY: Called result for "COc1ccc(C)cc1NC(=O)CSc1ccc(Cl)cc1"
RESULT: inactive

QUERY: Called result for CCC(C)NC(=O)c1ccc(N2CCC3(CC2)OCCO3)c([N+](=O)[O-])c1 (stereo not given)
RESULT: inactive

Others:
QUERY: Called result for "Cc1nnc(NC(=O)/C=C/c2ccco2)s1"
RESULT: inactive

QUERY: Called result for "Cc1cc([N+](=O)[O-])nn1CC(=O)Nc1ccc(Cc2ccncc2)cc1"
RESULT: inactive

QUERY: Called result for "CCOC(=O)c1c(NC(=O)Cn2nc(C(F)(F)F)cc2C)sc2c1CCC2"
RESULT: inactive

QUERY: Called result for "S=c1[nH]nc(-c2ccccc2)n1/N=C/c1c[nH]c2ccccc12"
RESULT: inactive
